Molecular target: furin, P09958;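 also: purified furin at 1:10 enzyme:substrate in 50 mM HEPES pH 7.5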
Sequence (P09958 whole entry): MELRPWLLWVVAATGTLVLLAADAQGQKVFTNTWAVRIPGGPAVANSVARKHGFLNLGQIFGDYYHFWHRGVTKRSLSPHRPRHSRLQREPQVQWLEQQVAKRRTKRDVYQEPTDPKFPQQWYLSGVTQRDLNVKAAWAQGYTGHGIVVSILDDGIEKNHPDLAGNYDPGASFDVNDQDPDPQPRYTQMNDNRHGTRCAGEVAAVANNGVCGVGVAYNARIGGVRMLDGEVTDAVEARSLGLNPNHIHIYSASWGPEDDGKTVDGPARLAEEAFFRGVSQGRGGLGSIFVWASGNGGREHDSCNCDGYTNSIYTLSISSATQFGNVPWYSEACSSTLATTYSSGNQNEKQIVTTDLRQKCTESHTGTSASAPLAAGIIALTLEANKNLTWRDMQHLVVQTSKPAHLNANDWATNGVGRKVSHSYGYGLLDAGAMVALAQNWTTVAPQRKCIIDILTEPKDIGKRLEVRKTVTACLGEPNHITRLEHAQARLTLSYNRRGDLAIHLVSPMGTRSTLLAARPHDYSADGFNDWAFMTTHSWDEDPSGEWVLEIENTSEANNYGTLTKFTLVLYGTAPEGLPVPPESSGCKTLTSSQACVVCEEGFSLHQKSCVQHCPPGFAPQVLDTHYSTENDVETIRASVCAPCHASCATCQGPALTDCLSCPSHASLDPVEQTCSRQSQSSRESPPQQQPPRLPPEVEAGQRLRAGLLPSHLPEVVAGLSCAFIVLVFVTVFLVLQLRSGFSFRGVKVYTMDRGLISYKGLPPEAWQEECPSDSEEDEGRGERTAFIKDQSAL
Experiment: furin cleavage Z-score vs untreated control; higher = more cleavage, active = 3.5 or more, inactive = 1 or less, 8 variable residues between constant flanks
Conditions: 30 min
The other results are listed elsewhere or left out. No count for the full screen is at hand.
observation.type: furin cleavage Z-score
// no unit, no text: just the number

Reported furin cleavage Z-score for CARSGRSANAAGNASASA [FS-2522] was 1.79

Reported furin cleavage Z-score for CASIPCSAHLAGNASASA [HC2484] was 0.274

Reported furin cleavage Z-score for CASPPVPPPRAGNASASA [HC1321] was 1.49

Reported furin cleavage Z-score for CARTKRLAIFAGNASASA [FS-3107] was 5.79

Reported furin cleavage Z-score for CAENLPYLVAAGNASASA [HC951] was -0.719

Reported furin cleavage Z-score for CARDDRSTSFAGNASASA [FS-1689] was 2.85

Reported furin cleavage Z-score for CAREERSWFRAGNASASA [FS-2910] was -1.01

Reported furin cleavage Z-score for CARSYRYALQAGNASASA [FS-3101] was -0.277

Reported furin cleavage Z-score for CAVVCKSMSYAGNASASA [HC91] was 0.551

Reported furin cleavage Z-score for CAVKAAASKVAGNASASA [HC1406] was -0.785

Reported furin cleavage Z-score for CAVQGLLRFCAGNASASA [HC618] was -0.436
